Tested on: grafted B16 F0 murine melanoma tumour
Experiment: Biodistribution of the ^125I-labelled molecules in the melanoma-bearing mouse (autoradiography of whole-body sections)
Conditions: 3 H after i.v. administration, ^125I-labelled compound
Structures can show the parent of a compound that is named as a salt.
recorded.metric: Concentration of radioactivity, Ic (intestinal contents), Mean (% ID/g)
Could you give me the number in % ID/g? Just the number is fine.

Which Concentration of radioactivity, Ic (intestinal contents), Mean is listed for CCN(CC)CCNC(=O)c1nc2ccccn2c1I [compound 16, dihydrochloride] ?
52.06

Another: CCN(CC)CCNC(=O)c1ccc2cc(I)ccc2n1.Cl.Cl
20.65

Same again, this time with CCN(CC)CCNC(=O)c1cc2cc(I)ccc2[nH]1 [compound 10, hydrochloride]
112.56

Similarly, CCN(CC)CCNC(=O)c1nc2ccc(I)cc2[nH]1.Cl.Cl ?
72.05

What about CCN(CC)CCNC(=O)c1ccc(I)nc1 [compound 7, dihydrochloride] ?
4.94

Ok, now CCN(CC)CCNC(=O)c1ccc2cc(I)ccc2c1 [compound 3, hydrochloride]
25.85

Would you mind doing CCN(CC)CCNC(=O)c1cc2c(I)cccc2s1.Cl as well?
73.02

----------
System: grafted B16 F0 murine melanoma tumour
Experiment: Biodistribution of the ^125I-labelled molecules in the melanoma-bearing mouse (autoradiography of whole-body sections)
Conditions: 6 H after i.v. administration, ^125I-labelled compound
Structures can show the parent of a compound that is named as a salt.
recorded.metric: Concentration of radioactivity, lungs, Mean (% ID/g)
Express the result in % ID/g but write the number alone.

For grafted B16 F0 murine melanoma tumour, provide Concentration of radioactivity, lungs, Mean of CCN(CC)CCNC(=O)c1nc2ccccn2c1I [compound 16, dihydrochloride] please.
4.56

Also CCN(CC)CCNC(=O)c1ccc2cc(I)ccc2n1.Cl.Cl , if possible.
5.32

Okay, and CCN(CC)CCNC(=O)c1ccc2cc(I)ccc2c1 [compound 3, hydrochloride] ?
2.12

Okay, and CCN(CC)CCNC(=O)c1ccc(I)nc1 [compound 7, dihydrochloride] ?
3.21

Repeat for the following molecule: CCN(CC)CCNC(=O)c1cc2cc(I)ccc2[nH]1 [compound 10, hydrochloride]
1.70

----------
For each entry below, report its Concentration of radioactivity, liver, Mean value.
System: grafted B16 F0 murine melanoma tumour
Experiment: Biodistribution of the ^125I-labelled molecules in the melanoma-bearing mouse (autoradiography of whole-body sections)
Settings: 1 H after i.v. administration, ^125I-labelled compound
Counter-ions that a name gives are not always drawn.
Note: state the figure and append the unit.

So what's the measured Concentration of radioactivity, liver, Mean for this one? CCN(CC)CCNC(=O)c1nc2ccccn2c1I [compound 16, dihydrochloride]
4.86 % ID/g

CCN(CC)CCNC(=O)c1ccc(I)nc1 [compound 7, dihydrochloride] ?
5.14 % ID/g

What about this compound? CCN(CC)CCNC(=O)c1nc2ccc(I)cc2[nH]1.Cl.Cl
13.08 % ID/g

Next compound: CCN(CC)CCNC(=O)c1ccc2cc(I)ccc2n1.Cl.Cl
10.92 % ID/g

Query CCN(CC)CCNC(=O)c1cc2cc(I)ccc2[nH]1 [compound 10, hydrochloride] next
11.86 % ID/g

Also CCN(CC)CCNC(=O)c1cc2c(I)cccc2s1.Cl , if possible.
2.21 % ID/g

Next compound: CCN(CC)CCNC(=O)c1ccc2cc(I)ccc2c1 [compound 3, hydrochloride]
9.46 % ID/g
